# Target Or System: NLRP3 inflammasome (Homo sapiens)
# Construct: host or cells: THP-1 cells, PMA-differentiated
# Sequence (Q96P20 whole entry): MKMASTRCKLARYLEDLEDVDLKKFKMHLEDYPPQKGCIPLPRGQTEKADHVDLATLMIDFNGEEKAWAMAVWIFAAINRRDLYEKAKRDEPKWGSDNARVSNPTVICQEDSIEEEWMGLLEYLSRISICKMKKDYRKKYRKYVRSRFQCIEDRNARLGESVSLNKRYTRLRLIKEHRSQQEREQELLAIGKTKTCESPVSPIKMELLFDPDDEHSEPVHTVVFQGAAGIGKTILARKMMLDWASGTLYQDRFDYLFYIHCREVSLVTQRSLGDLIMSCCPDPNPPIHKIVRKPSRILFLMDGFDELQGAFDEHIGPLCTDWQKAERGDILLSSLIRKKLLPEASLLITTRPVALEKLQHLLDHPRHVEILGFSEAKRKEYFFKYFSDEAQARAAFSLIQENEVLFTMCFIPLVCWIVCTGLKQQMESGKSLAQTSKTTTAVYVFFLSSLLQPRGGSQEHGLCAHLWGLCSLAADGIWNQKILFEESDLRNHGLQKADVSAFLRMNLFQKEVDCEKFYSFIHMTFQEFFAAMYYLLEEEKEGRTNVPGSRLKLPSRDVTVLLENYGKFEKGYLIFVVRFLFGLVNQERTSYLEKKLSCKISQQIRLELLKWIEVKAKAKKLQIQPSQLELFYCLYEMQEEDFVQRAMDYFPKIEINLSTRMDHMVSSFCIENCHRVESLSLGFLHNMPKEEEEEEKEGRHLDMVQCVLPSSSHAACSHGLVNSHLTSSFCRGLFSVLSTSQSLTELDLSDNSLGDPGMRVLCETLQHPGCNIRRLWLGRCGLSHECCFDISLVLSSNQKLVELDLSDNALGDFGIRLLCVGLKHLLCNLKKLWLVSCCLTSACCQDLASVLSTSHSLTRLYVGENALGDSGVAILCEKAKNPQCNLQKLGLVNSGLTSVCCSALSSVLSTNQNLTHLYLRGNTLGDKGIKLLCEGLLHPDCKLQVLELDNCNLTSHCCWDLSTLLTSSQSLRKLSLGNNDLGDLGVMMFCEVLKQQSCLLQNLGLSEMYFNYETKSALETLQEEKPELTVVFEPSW
# Test Description: IL-1β secretion assay (nigericin-activated, PMA-differentiated THP-1 cells, HTRF)
# Type: cell-based
# Measurement Context: PMA-differentiated THP-1 cells; compound 1 hour, then 15 μM nigericin, 3 hours; IL-1β by HTRF; read-out: IL-1β IC50
Recorded Endpoint: IC50 (nM)

Molecule: Cc1cc(C(F)(F)F)cc(O)c1-c1ccc(NC[C@@H](F)C(C)(C)O)nn1
Recorded Endpoint: IC50
Reported: 139
--
Molecule: Cc1cc(C(F)(F)F)cc(O)c1-c1ccc(NC[C@H]2CC(F)(F)CN2)nn1
Recorded Endpoint: IC50
Reported: 93.4
--
Molecule: Cc1cc(C(F)(F)F)cc(O)c1-c1ccc(OCC(C)(C)O)nn1
Recorded Endpoint: IC50
Reported: 93.6
--
Molecule: Cc1cc(C(F)(F)F)cc(O)c1-c1ccc(NCC2COCCN2C)nn1 (racemic)
Recorded Endpoint: IC50
Reported: 61.9
